# credit: ChEMBL document CHEMBL1201862

test system: SW-620; assay: NCI tumour cell line growth inhibition, 48 h
Active and inactive are the calls of the source. Cut-off read from the data, not from the text of the source: active = GI50 up to about 1.1 µM and inactive = higher.
Could you please pick one outcome from this set? true (1) for active, false (0) for inactive

Call for entry Cc1ccc(NC(=O)CCC(=O)C2CC(=O)CCC2=O)cc1C (stereo not drawn) :
false (0)

Further, for Cc1ccc(S(=O)(=O)NCCCSCCN)cc1 ?
false (0)

Further, for Clc1sc(Cl)c2c1[C@H](Br)C[C@@H]2Cl ?
false (0)

Further, for CN(C)C(=S)/N=c1\ssc(=S)n1-c1ccccc1 ?
false (0)

Further, for COc1ccc(NC(=S)c2ccc([N+](=O)[O-])o2)cc1 ?
true (1)

Further, for Cc1cn(C2C=CC(COP(=O)(OCC3=CC(=O)c4ccccc4C3=O)N(C)CCCCCl)O2)c(=O)[nH]c1=O (stereo not drawn) ?
false (0)

Further, for C[C@H]1/C(=C/C(=O)OCCN(C)C)CC[C@H]2[C@H]1C(=O)C[C@H]1C(C)(C)[C@@H](O)CC[C@]21C ?
false (0)

Further, for CC12CCC3[C@@H](CC3(C)C)C(O)(CCC1=O)C2 (stereo partly drawn) ?
false (0)

Further, for CCCCCCCCCCCCCCCCCCNc1ccn(C2OC(CO)C(OP(=O)(O)OCC(O)COP(=O)(O)OCC3OC(n4cc(F)c(NCCCCCCCCCCCCCCCCCC)nc4=O)CC3O)C2O)c(=O)n1 (stereo not drawn) ?
false (0)

Further, for CCOC(=O)c1csc(NC(=O)CN2CCCC2)n1 ?
false (0)

Further, for O=C1C(NCCc2cc(Br)c(O)c(Br)c2)=CC(=O)c2ncccc21 ?
false (0)

Further, for Nc1ccc(Oc2ccc(C34CC5CC(C3)CC(c3ccc(Oc6ccc(N)cc6)cc3)(C5)C4)cc2)cc1 ?
false (0)

Further, for O=C(O)CC(Sc1ccccc1)c1ccccc1 (stereo not drawn) ?
false (0)

Further, for CN(C)c1ccc(/C=C2\N=C(c3ccccc3)N(c3nc4c(Cl)cc(Cl)cc4s3)C2=O)cc1 ?
false (0)

Further, for CC1CCC2(CC1)N=C1CCC(C)CC1C1(CCC(C)CC1)N2 (stereo not drawn) ?
false (0)

Further, for CCOC(CI)O[C@@H]1C=C[C@H](OC(C)=O)C1 (stereo partly drawn) ?
false (0)

Further, for N#C[C@H](c1ccccn1)c1nc2ccccc2nc1Cl ?
false (0)

Further, for CC1=CC(O)CC(C)(C)C1/C=C/C(C)=C/C=C/C(C)=C/C=C/C=C(C)/C=C/C=C(C)/C=C/C1=C(C)CC(O)CC1(C)C (stereo not drawn) ?
false (0)

Further, for COC(=O)N/N=C(\C)CC(=O)Nc1cccc([N+](=O)[O-])c1 ?
false (0)

Further, for CC12CCC3C(CCC4CC(OC(=O)Cc5ccc(N(CCCl)CCCl)cc5)CCC43C)C1CCC(=O)N2 (stereo not drawn) ?
false (0)

Further, for Cc1cc2c(c(/C=N/c3ccccc3O)c1)OC1(C=C2)Oc2ccccc2C(=O)N1C (stereo not drawn) ?
false (0)

Further, for O=C(OCCN=c1c2ccccc2ccc2ccccc12)c1ccc([N+](=O)[O-])cc1 ?
false (0)

Further, for Cc1ccc(C(O)(c2ccc(C)cc2)c2ccccn2)cc1 ?
false (0)
